target: His6-AspH315–758 (human aspartate/asparagine-β-hydroxylase, AspH) (Homo sapiens); construct: N-Terminally His6-tagged human AspH315–758 (His6-AspH315–758) was produced in E. coli BL21 (DE3) cells; made in house; host or cells: E. coli BL21 (DE3), pET-28a(+) vector; assay: SPE-MS AspH inhibition assay (LOPAC screen at fixed 20 μM and IC50 dose-response), hydroxylation of cyclic peptide hFX-CP101–119; type: biochemical; conditions: LOPAC Plate 4, compound at 20 uM, substrate conversion
Sequence (Q12797 315-758): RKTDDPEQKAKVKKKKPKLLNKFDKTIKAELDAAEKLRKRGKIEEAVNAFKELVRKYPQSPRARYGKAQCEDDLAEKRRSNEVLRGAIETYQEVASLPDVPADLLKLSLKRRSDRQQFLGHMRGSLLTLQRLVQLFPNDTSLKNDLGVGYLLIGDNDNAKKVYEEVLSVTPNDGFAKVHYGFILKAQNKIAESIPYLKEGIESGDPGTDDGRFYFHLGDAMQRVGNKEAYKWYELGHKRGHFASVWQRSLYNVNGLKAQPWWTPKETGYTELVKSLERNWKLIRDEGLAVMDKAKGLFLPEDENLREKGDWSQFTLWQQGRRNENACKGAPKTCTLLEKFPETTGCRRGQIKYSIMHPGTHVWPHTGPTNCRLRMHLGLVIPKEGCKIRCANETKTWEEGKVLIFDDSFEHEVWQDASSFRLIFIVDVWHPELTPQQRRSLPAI
Structures can show the parent of a compound that is named as a salt.
reported_property: % conversion (%)
One number for each entry, in %.

Hi team, please reply with % conversion for each item in this list.
1. CC(=O)O[C@H]1Cc2ccccc2N(C(N)=O)c2ccccc21
2. CC(=O)NNC(=O)N1Cc2ccccc2Oc2ccc(Cl)cc21
3. N.S=C(S)N1CCCC1 [Ammonium pyrrolidinedithiocarbamate]
4. COc1cc2nc(N3CCCN(C)CC3)nc(NC3CCN(Cc4ccccc4)CC3)c2cc1OC [BIX 01294 trihydrochloride hydrate]
5. NC/C=C/C(=O)O [(E)-4-amino-2-butenoic acid]

1: 30.46; 2: 29.06; 3: 37.86; 4: 39.65; 5: 36.42

Taken from paper PMC7251097.
